Molecular target: Rv2027194 (Mycobacterium tuberculosis, UniProt P9WGK1)
Sequence (P9WGK1 380-573 limits assumed): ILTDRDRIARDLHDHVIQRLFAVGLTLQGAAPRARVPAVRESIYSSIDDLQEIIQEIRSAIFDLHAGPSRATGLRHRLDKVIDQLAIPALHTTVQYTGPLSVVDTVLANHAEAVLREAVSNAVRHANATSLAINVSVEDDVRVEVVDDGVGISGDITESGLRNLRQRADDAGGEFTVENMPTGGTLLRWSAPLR
Assay: High-throughput (96-well filter retention) autophosphorylation of sensor kinase Rv2027194 with [γ32P]ATP
Assay type: biochemical, M. tuberculosis
Conditions: high-throughput format, concentration course 2.5 mM to 1 μM; read-out: concentration required to cause 50% inhibition (IC50) of the autophosphorylation of Rv2027194
Property Measured: IC50

{"columns": ["Entry Smiles", "Property Measured", "Assay Result"],
 "data": [
  ["O=S1(=O)OC(c2cc(Br)c(O)c(Br)c2)(c2cc(Br)c(O)c(Br)c2)c2ccccc21", "IC50", "1.5 to 1.7 mM"]
]}
